Test system: E. coli (MCR106)
Assay: MIC, broth microdilution, E. coli (MCR106)
Format: cell-based
Details: Escherichia coli
parameter measured: MIC

C#CCCN1CCN(c2ccc(Nc3ccnc4cc5ccccc5cc34)cc2)CC1 :: > 64 µg/mL
c1ccc2cc3c(Nc4ccc(N5CCCCCC5)cc4)ccnc3cc2c1 :: > 64 µg/mL
CCN(CC)CCNc1ccc(Nc2ccnc3cc4ccccc4cc23)cc1 :: 8 µg/mL
c1ccc2cc3c(Nc4ccc(N5CCCCC5)cc4)ccnc3cc2c1 :: > 64 µg/mL
CCCCC(C)Nc1ccnc2cc3ccccc3cc12 (stereo not shown) :: > 64 µg/mL
OCCCN1CCN(c2ccc(Nc3ccnc4cc5ccccc5cc34)cc2)CC1 :: 16 µg/mL

Now for a further compound.
Task item: # MIC lookup, item `CC(C)Nc1ccc(Nc2ccnc3cc4ccccc4cc23)cc1`
Reply: > 64 µg/mL

###

Test system: E. coli (BAS)
Assay: MBC, E. coli (BAS)
Format: cell-based
Details: Escherichia coli, minimum bactericidal concentration, read-out: MBG
parameter measured: MBC (µg/mL)
Answers are plain numbers, in µg/mL.

CCCCC(C)Nc1ccnc2cc3ccccc3cc12 (centres unmarked) :: 16

Go through the items and report each one's MBC.
1. CCN(CC)CCNc1ccc(Nc2ccnc3cc4ccccc4cc23)cc1
2. c1ccc2cc3c(Nc4ccc(N5CCCCC5)cc4)ccnc3cc2c1
3. OCCCN1CCN(c2ccc(Nc3ccnc4cc5ccccc5cc34)cc2)CC1
4. CCN1CCC(c2ccc(Nc3ccnc4cc5ccccc5cc34)cc2)CC1

Reply:
16
2
8
32

###

Test system: E. coli (BAS)
Test: MBC, E. coli (BAS)
Type: cell-based
Conditions: Escherichia coli, minimum bactericidal concentration, read-out: MBG
parameter measured: MBC

Example entries begin here.
C#CCCN1CCN(c2ccc(Nc3ccnc4cc5ccccc5cc34)cc2)CC1 :: > 64 µg/mL
c1ccc2cc3c(Nc4ccc(N5CCCCCC5)cc4)ccnc3cc2c1 :: > 64 µg/mL

Task item: # MBC lookup, item `CC(C)Nc1ccc(Nc2ccnc3cc4ccccc4cc23)cc1`
Reply: > 64 µg/mL
